# assayed.system: Mannose-6-phosphate isomerase (Homo sapiens) (UniProt P34949)
# Sequence (P34949 whole entry, looked up): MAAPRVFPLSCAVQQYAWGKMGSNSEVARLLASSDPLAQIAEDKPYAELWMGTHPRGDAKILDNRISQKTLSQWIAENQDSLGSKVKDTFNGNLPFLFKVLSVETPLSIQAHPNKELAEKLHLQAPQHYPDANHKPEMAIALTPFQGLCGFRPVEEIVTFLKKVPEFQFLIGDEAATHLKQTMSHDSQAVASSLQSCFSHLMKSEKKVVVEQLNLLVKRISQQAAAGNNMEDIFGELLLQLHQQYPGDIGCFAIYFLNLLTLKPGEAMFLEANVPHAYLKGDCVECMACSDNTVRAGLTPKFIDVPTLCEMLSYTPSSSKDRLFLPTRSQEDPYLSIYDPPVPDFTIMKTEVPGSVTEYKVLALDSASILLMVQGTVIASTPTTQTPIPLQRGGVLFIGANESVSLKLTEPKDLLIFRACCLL
# method.summary: inhibitors of human PMI, primary screen, biochemical, fluorescence intensity, coupled assay (AID 1209);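 further: plate controls were DMSO vehicle for no effect and wells lacking substrate for full effect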
# details: purified PMI enzyme, at 20 µM, stronger effect = higher value
In all, about 190,000 compounds went through this assay and about 810 (0.43%) were called active. For the sample, actives were picked, then their nearest neighbours and some compounds at random.
Reported inhibition is given for each of the following compounds.
Reply numerically in %, unit not repeated.

> print(dat)
                                   compound                            assayed.system  result.type  observed.measurement
1  CCOC(=O)C1=C(C)Nc2ccccc2N=C1NC(=O)Cc1ccc(Br)cc1  Mannose-6-phosphate isomerase (Homo sapiens) (UniProt P34949)   inhibition                  18.8
2  O=C(Nc1ccc(N2CCCC2)c(Cl)c1)c1ccccc1[N+](=O)[O-]  Mannose-6-phosphate isomerase (Homo sapiens) (UniProt P34949)   inhibition                  -3.5

Reported inhibition for CC(C)NC(=O)C1CCN(C2CCN(Cc3nc4ccccc4s3)CC2)CC1 was 1.6

Summary for this compound, CCOC(=O)CSc1nc2sccc2c(=O)[nH]1 : inhibition is 2.3

Data point: Cc1c(C(=O)NN)sc(-c2ccccc2)c1C#N ; inhibition = -23.8

GET /value?item= Cc1nn(Cc2cccc(C(=O)NC3CCCCC3)c2)c(C)c1Cl &field=inhibition returns 7.3

Lab book: inhibition of CCC[n+]1c(C)sc2c3c(ccc21)CCCC3 noted as 22.9

// inhibition value for CC[n+]1c(/C=C/C=C/N(C(C)=O)c2ccccc2)sc2cc(OC)ccc21 : -17.8

* * *

# assayed.system: Mannose-6-phosphate isomerase (Homo sapiens)
# method.summary: inhibitors of human PMI, primary screen, biochemical, fluorescence intensity, coupled assay (AID 1209);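 further: plate controls were DMSO vehicle for no effect and wells lacking substrate for full effect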
# details: purified PMI enzyme, at 20 µM
The whole screen tested about 190,000 compounds, of which about 810 (0.43%) were called active. Cut-off read from the data, not from the text of the source: active = inhibition above about 50%; inactive = the rest. The sample holds actives, similar compounds and a random draw of the others, so the mix is not that of the screen.
Could you please pick one outcome from this set? Y = active, N = inactive

In: Any idea what this test logged for Oc1ccc(/C=N/Nc2nc(N3CCCC3)nc(N3CCCC3)n2)cc1O ?
Out: Y

* * *

# assayed.system: Mannose-6-phosphate isomerase (Homo sapiens) (UniProt P34949)
# method.summary: inhibitors of human PMI, primary screen, biochemical, fluorescence intensity, coupled assay (AID 1209);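 further: plate controls were DMSO vehicle for no effect and wells lacking substrate for full effect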
# details: purified PMI enzyme, at 20 µM
Out of some 190,000 compounds screened, about 810 (0.43%) were called active. No stated cut-off is given here; in the data, active means inhibition above about 50%; inactive means the rest. This is one part of a sample in which actives are shown more often than they occur.
Your response should consist of one outcome taken from YES (active), NO (inactive)

Examples with answers:
> print(dat)
                                   molecule  class.label
1           CC(=O)Nc1nc(SCCCc2ccccc2)n[nH]1           NO
2  O=S(=O)(/C=C/c1ccccc1)N1CCN(Cc2ccccc2)CC1           NO
3  COc1ccc(-c2nc3ccccc3c(=O)n2NC(=S)N(C)C)cc1          YES
4   O=C(N/N=C/c1ccc(N2CCOCC2)o1)c1cccc(F)c1           NO
5  CC(/C=C/c1ccccc1)NC(N)=O (stereo not drawn)           NO

In: How did this test come out for Cc1cccc(-n2ccnc2SCC(=O)N2CCCc3ccccc32)c1C ?
Out: NO

In: Per the records of this test, what outcome belongs to CCOC(=O)c1c(NC(=O)CN(C)C)sc(C(=O)N(CC)CC)c1C ?
Out: NO

In: Could you please tell me the result logged for CCOC(=O)Cc1csc(NC(=O)C(C)(C)CC)n1 in this assay?
Out: NO
